Entries and their IC50
# EXPERIMENTAL SYSTEM: Casein kinase II subunit alpha (Homo sapiens, UniProt P68400)
# Sequence (P68400 whole entry): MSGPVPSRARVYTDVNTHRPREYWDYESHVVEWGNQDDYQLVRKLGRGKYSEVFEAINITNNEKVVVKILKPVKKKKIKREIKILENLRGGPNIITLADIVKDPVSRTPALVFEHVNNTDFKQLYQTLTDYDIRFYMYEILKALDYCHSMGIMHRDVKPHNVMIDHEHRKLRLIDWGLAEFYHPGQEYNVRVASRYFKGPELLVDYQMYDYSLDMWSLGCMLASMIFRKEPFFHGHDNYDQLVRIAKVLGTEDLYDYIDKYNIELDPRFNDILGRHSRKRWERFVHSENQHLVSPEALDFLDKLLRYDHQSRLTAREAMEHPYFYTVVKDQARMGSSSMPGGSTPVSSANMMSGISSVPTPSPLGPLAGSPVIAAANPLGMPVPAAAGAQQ
# MEASUREMENT NOTES: Inhibition of full length N-terminal 6xHis-tagged recombinant human CK2alpha expressed in fall armyworm Sf21 cells using BODIPY-FL-RRRDDDSDDD-CONH2 as substrate after 90 mins by mobility shift assay

INSERT INTO assay_data (molecule_smiles, value_kind, result) VALUES
  ('CC(=O)Nc1cc(Nc2cc(NC3CC3)n3ncc(C#N)c3n2)ccc1N(C)C[C@@H](C)N', 'IC50', '< 3 nM'),
  ('CC(=O)Nc1cc(Nc2cc(NC3CC3)n3ncc(C#N)c3n2)ccc1N(C)CCN(C)C', 'IC50', '< 3 nM'),
  ('CC(=O)Nc1cc(Nc2cc(NC3CC3)n3ncc(C#N)c3n2)ccc1N(C)CCO', 'IC50', '< 3 nM'),
  ('CC(=O)Nc1cc(Nc2cc(NC3CC3)n3ncc(C#N)c3n2)ccc1N(C)CCN1CCOCC1', 'IC50', '< 3 nM'),
  ('CC(=O)Nc1cc(Nc2cc(NC3CC3)n3ncc(C#N)c3n2)ccc1N(C)C[C@H](C)N', 'IC50', '< 3 nM');

Data request, read-out IC50, for CCN(CCN)c1ccc(Nc2cc(NC3CC3)n3ncc(C#N)c3n2)cc1NC(C)=O < 3 nM

Same for CC(=O)Nc1cc(Nc2cc(NC3CC3)n3ncc(C#N)c3n2)ccc1N1CC[C@H](N)C1 < 3 nM

Same for CC(=O)Nc1cc(Nc2cc(NC3CC3)n3ncc(C#N)c3n2)ccc1N1CC[C@@H](N)C1 < 3 nM

====

# Tested on: Mus musculus
# MEASUREMENT NOTES: Toxicity in Ncr nu/nu mouse xenografted with human SW620 cells harboring APC mutation assessed as reduction in body weight at 30 mg/kg, ip measured on day 25
# Assay type: organism-based, SW-620
# Parameters: scale not given: the % may be the effect or the level left
# SETUP CONDITIONS: in vivo
VALUE KIND: Activity (%)
Report only the number, with the unit % understood.

State its Activity on Mus musculus: CC(=O)Nc1cc(Nc2cc(NC3CC3)n3ncc(C#N)c3n2)ccc1N(C)CCN 6.8

====

# EXPERIMENTAL SYSTEM: Casein kinase II (Homo sapiens, UniProt P19784+P67870+P68400)
# Sequence (P67870 whole entry): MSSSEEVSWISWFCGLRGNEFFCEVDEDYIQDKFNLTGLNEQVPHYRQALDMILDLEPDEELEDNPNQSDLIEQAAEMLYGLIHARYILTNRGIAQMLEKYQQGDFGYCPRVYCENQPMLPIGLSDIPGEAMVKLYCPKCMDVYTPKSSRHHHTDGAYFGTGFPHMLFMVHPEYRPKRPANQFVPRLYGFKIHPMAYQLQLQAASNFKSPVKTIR
# Sequence (P68400 whole entry): as the sequence (P68400 whole entry) above
# Sequence (P19784 whole entry): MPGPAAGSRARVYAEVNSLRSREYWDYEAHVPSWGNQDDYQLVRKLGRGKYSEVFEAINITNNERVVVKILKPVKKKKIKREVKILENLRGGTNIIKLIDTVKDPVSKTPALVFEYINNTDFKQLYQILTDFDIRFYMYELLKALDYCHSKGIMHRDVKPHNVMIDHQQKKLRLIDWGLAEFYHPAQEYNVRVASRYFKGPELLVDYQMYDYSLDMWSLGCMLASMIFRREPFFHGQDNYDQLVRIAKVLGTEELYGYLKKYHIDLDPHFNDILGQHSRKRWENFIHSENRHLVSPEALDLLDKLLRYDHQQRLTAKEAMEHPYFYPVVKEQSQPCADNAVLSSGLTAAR
# MEASUREMENT NOTES: Inhibition of CK2 in human DLD1 HA-myr-AKT1 cells assessed as suppression of AKTser129 phosphorylation after 3 to 24 hrs by Western blot analysis
Entries and their pIC50
Recall that pIC50 is obtained by taking minus log10 of the concentration measured in molar.

# example entries with known answers
INSERT INTO assay_data (molecule_smiles, value_kind, quantitative_readout) VALUES
  ('CC(=O)Nc1cc(Nc2cc(NC3CC3)n3ncc(C#N)c3n2)ccc1N(C)CCN1CCOCC1', 'pIC50', 8.30),
  ('CC(=O)Nc1cc(Nc2cc(NC3CC3)n3ncc(C#N)c3n2)ccc1N1CC[C@@H](N)C1', 'pIC50', 7.15);

Next compound, please.
State its pIC50 on Casein kinase II (Homo sapiens, UniProt P19784+P67870+P68400): CC(=O)Nc1cc(Nc2cc(NC3CC3)n3ncc(C#N)c3n2)ccc1N(C)C[C@@H](C)N 8.40
